Molecular target: folate receptor alpha (FRα) on cells (human, UniProt P15328 25-234)
Sequence (P15328 25-234): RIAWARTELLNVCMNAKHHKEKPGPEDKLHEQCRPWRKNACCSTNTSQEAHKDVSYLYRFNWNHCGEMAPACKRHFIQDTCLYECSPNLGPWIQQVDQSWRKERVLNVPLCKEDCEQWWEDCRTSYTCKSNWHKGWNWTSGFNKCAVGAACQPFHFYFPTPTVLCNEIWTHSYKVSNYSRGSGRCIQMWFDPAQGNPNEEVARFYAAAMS
Experiment: cell-based or functional assay
measured.attribute: IC50, in vitro cytotoxicity (WST-8, 5 days), KB cells, +Block

binder	experimental.result
conjugate 17h (antibody, human IgG1, kappa, V domains shown, thio-peptide-maytansinoid 14h linked through sulfo-GMBS to antibody amines (Example 4)) VH: QVQLVQSGAEVVKPGASVKISCKASGYTFTGYFMNWVKQSPGQSLEWIGRIHPYDGDTFYNQKFQGKATLTVDKSSNTAHMELLSLTSEDFAVYYCTRYDGSRAMDYWGQGTTVTVSS VL: DIVLTQSPLSLAVSLGQPAIISCKASQSVSFAGTSLMHWYHQKPGQQPRLLIYRASNLEAGVPDRFSGSGSKTDFTLTISPVEAEDAATYYCQQSREYPYTFGGGTKLEIKR	> 50 nM
conjugate 17i (antibody, human IgG1, kappa, V domains shown, thio-peptide-maytansinoid 14i linked through sulfo-GMBS to antibody amines (Example 4)) VH: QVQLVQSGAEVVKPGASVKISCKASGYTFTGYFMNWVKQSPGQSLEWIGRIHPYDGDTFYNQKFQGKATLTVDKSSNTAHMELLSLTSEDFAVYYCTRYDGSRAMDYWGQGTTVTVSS VL: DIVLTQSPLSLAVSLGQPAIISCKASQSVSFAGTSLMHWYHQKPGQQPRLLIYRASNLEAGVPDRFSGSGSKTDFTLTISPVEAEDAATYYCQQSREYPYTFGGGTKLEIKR	> 50 nM
